Provenance of the data: ChEMBL document CHEMBL3091413

biological target: MAO-A (amine oxidase [flavin-containing] A) (Rattus norvegicus); assay: Inhibition of Sprague-Dawley rat MAO-A using Kynuramine as substrate assessed as formation of 4-hydroxyquinoline at 10 uM preincubated for 5 mins prior to substrate addition measured for 5 mins by spectrophotometry; conditions: rat MAO-A enzyme preparation, probe kynuramine
Sequence (P21396 whole entry): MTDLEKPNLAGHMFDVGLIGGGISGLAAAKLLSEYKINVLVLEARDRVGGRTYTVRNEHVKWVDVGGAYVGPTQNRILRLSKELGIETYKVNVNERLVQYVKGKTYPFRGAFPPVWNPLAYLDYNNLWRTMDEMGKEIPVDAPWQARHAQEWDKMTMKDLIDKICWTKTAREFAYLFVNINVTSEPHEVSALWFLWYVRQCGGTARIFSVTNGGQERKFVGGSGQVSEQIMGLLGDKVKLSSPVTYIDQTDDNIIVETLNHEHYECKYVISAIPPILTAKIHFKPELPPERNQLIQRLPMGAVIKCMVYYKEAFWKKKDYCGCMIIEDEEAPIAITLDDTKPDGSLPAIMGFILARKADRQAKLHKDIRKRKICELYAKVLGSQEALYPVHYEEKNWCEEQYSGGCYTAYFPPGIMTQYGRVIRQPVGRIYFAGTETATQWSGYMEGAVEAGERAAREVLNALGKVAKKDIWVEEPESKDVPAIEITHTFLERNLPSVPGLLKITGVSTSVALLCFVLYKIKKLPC
observedProperty: inhibition at 5 min, 10 µM (%)

Worked examples, 5 molecules total:
For record "CCOc1cc(=O)oc2cc(OCc3cccc(Br)c3)ccc12" the listed inhibition at 5 min, 10 µM is 2.5

For record "CCOC(=O)Nc1cc(=O)oc2cc(OCc3cccc(Cl)c3)ccc12" the listed inhibition at 5 min, 10 µM is 21

inhibition at 5 min, 10 µM in this record for "COc1cc(=O)oc2cc(OCc3cccc(Br)c3)ccc12" : 27

Entry "CN(C)C(=O)Cc1cc(=O)oc2cc(OCc3cccc(Cl)c3)ccc12" , inhibition at 5 min, 10 µM reported as 0

For reference, reported inhibition at 5 min, 10 µM for "O=c1cc(O)c2ccc(OCc3ccccc3)cc2o1" stands at 2

A. CNC(=O)COc1cc(=O)oc2cc(OCc3cccc(Cl)c3)ccc12
B. COc1cc(=O)oc2cc(OCc3ccccc3)ccc12
C. CC(C)Nc1cc(=O)oc2cc(OCc3cccc(Cl)c3)ccc12
Query: Hi! Can you put these in order of inhibition at 5 min, 10 µM, lowest number first? As an answer, provide the labels arranged in the order called for.
Reply: C, A, B
